Assay Info: Mean residence time in iv dosed Sprague-Dawley rat
Format: ADME, organism-based
Test Settings: in vivo

Item Smiles | Unit Annotation | MRT
CN(C)CCCC(=O)NCc1ccc(O)c(-c2cccc(-c3cc4cc(C(=N)N)ccc4[nH]3)c2O)c1 | h | 0.833
N=C(N)c1ccc2[nH]c(-c3cccc(-c4cc(CNC(=O)CO)ccc4O)c3O)cc2c1 | h | 1.95
CCCCCC(=O)NCc1ccc(O)c(-c2cccc(-c3cc4cc(C(=N)N)ccc4[nH]3)c2O)c1 | h | 1.48

====

Assay Info: Cmax in jugular vein catheter of Sprague-Dawley rat at 10 mg/kg, po
Assay type: ADME, organism-based
Design: dose 10 mg/kg, route oral
Test Settings: in vivo
Measurement Name: Cmax (nM)

Item Smiles | Measurement Name | Number
CCCCCC(=O)NCc1ccc(O)c(-c2cccc(-c3cc4cc(C(=N)NO)ccc4[nH]3)c2O)c1 | Cmax | 1730
CCCCCC(=O)NCc1ccc(O)c(-c2cccc(-c3cc4cc(C(=N)N)ccc4[nH]3)c2O)c1 | Cmax | 12

====

Quick reference: MRT of the listed items.
Assay Info: Mean residence time in iv dosed rat
Type: ADME, organism-based
Test Settings: in vivo

Compound | MRT
Cc1cc(-c2nc3cc(C(=N)N)ccc3[nH]2)c(O)c(-c2cc(CNC(N)=O)ccc2O)c1 | < 20 min
N=C(N)c1ccc2[nH]c(-c3cc(C(CC(=O)O)C(=O)O)cc(-c4cc(CNC(N)=O)ccc4O)c3O)nc2c1 (stereo not given) | > 60 min
N=C(N)c1ccc2[nH]c(-c3cc(F)cc(-c4cc(CNC(N)=O)ccc4O)c3O)nc2c1 | < 20 min
N=C(N)c1ccc2[nH]c(-c3cccc(-c4cc(CNC(N)=O)ccc4O)c3O)nc2c1 | 20 min
N=C(N)c1ccc2[nH]c(-c3cc(CC(=O)O)cc(-c4cc(CNC(N)=O)ccc4O)c3O)nc2c1 | < 20 min

====

Assay Info: AUC in jugular vein catheter of Sprague-Dawley rat at 10 mg/kg, po
Format: ADME, organism-based
Set-up: dose 10 mg/kg, route oral
Test Settings: plasma

Item Smiles | AUC, nM·h
CCCCCC(=O)NCc1ccc(O)c(-c2cccc(-c3cc4cc(C(=N)NO)ccc4[nH]3)c2O)c1 | 2400
CCCCCC(=O)NCc1ccc(O)c(-c2cccc(-c3cc4cc(C(=N)N)ccc4[nH]3)c2O)c1 | 12.2

====

Assay Info: Terminal half life in jugular vein catheter of Sprague-Dawley rat at 10 mg/kg, po
Type: ADME, organism-based
Set-up: dose 10 mg/kg, route oral
Test Settings: in vivo
// half-life lookup, one value per entry
Measurement Name: half-life

Item Smiles | Result
CCCCCC(=O)NCc1ccc(O)c(-c2cccc(-c3cc4cc(C(=N)N)ccc4[nH]3)c2O)c1 | 37 min
CCCCCC(=O)NCc1ccc(O)c(-c2cccc(-c3cc4cc(C(=N)NO)ccc4[nH]3)c2O)c1 | 54 min
